The measurements presented in this section are drawn from patent US20080194877A1.

System: IL-6
Experiment: LPS-induced IL-6 release in rat peritoneal macrophages
Type: cell-based
Conditions: LPS 1 μg/ml, 24 h
quantity: IC50 (µM)
Field: numeric (µM). Do not append units.

Exam item: Give its IC50 value. Item: CCCCCNC(=S)Nc1ccc(NC(C)=N)cc1 [Compound 1.1]
Marked response: 63

###

Test system: ROS generation in human PMNL
Assay: Inhibition of luminol-dependent chemiluminescence (ROS generation) in PMA-activated human PMNL
Format: cell-based
Settings: rising phase, at 15 min; 0.1 μM PMA; read-out: IC50 luminol-enhanced chemiluminescence, rising phase
quantity: pIC50
pIC50 (log units): -log10 of the concentration in mol/L.

Exam item: Can you share its pIC50? I mean this compound: `CCCCCNC(=S)Nc1ccc(NC(C)=N)cc1`
Marked response: 5.19

###

Test system: IL-1β
Experiment: LPS-induced IL-1β release in rat peritoneal macrophages
Type: cell-based
Conditions: LPS 1 μg/ml, 24 h
quantity: pIC50
Please express pIC50 as -log10 of the molar concentration.

Exam item: Query for IL-1β: what pIC50 does the record show for `CCCCCNC(=S)Nc1ccc(NC(C)=N)cc1` ?
Marked response: 4.52
